target_of_assay: EPHB1 (UniProt P54762)
Sequence (P54762 whole entry, looked up): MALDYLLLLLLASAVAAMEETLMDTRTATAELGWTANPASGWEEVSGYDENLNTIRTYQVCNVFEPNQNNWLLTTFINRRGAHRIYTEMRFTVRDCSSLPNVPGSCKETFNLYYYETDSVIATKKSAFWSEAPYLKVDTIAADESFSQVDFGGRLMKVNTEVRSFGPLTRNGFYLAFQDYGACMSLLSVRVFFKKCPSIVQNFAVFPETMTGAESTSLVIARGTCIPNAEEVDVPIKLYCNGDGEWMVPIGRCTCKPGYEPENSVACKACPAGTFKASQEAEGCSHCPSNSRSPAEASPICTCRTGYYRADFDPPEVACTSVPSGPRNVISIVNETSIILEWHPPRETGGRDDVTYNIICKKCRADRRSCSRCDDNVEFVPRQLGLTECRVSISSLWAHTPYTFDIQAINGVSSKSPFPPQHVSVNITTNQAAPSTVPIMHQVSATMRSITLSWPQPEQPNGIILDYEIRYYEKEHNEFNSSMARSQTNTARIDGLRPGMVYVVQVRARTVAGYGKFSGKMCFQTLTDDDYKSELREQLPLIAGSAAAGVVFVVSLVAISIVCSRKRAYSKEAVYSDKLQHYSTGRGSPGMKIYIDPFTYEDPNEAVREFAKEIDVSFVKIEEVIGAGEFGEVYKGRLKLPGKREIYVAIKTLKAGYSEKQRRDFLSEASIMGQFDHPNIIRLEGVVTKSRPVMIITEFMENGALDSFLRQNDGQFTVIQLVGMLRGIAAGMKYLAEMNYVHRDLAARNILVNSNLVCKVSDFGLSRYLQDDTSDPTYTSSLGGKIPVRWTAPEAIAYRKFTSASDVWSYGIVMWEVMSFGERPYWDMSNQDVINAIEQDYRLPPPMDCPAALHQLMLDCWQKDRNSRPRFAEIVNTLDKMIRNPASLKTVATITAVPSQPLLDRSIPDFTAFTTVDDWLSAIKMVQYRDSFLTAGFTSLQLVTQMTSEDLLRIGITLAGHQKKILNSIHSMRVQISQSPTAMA
experiment_summary: phosphorylation enrichment, bacterial display (enrichment ratio); higher = better substrate or ligand; peptides without Tyr show the background;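 note: 11-residue human phosphosite peptides and single-mutation variants displayed on the E. coli surface, counted by deep sequencing, each peptide's frequency after selection divided by its frequency in the unselected input library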;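 note: frequency after pTyr selection over input frequency; kinase dosed for 20-30% of maximal phosphorylation in three min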
readout_kind: phosphorylation enrichment

> print(dat)
               biopolymer.sequence  test.value
1  KNKNRYKNVLP [PTPN11_Y279_I282V]       0.426
2    GAVGNYSRGLA [MGMT_Y158_G160R]         0.5
3      TRSYDYMEGED [FGF7_Y58_G62E]       0.711
4     VLAHKYHGGGG [HBB_Y146_A141V]       0.354
5   DFTSRYLSASD [PKHD1_Y828_N830S]       0.549
6     GLNKDYRMVVN [HINT1_Y94_G93D]       0.426
7                      KINKMYSDHAM       0.351

* * *

target_of_assay: Jak2 (UniProt O60674)
Sequence (O60674 whole entry, looked up): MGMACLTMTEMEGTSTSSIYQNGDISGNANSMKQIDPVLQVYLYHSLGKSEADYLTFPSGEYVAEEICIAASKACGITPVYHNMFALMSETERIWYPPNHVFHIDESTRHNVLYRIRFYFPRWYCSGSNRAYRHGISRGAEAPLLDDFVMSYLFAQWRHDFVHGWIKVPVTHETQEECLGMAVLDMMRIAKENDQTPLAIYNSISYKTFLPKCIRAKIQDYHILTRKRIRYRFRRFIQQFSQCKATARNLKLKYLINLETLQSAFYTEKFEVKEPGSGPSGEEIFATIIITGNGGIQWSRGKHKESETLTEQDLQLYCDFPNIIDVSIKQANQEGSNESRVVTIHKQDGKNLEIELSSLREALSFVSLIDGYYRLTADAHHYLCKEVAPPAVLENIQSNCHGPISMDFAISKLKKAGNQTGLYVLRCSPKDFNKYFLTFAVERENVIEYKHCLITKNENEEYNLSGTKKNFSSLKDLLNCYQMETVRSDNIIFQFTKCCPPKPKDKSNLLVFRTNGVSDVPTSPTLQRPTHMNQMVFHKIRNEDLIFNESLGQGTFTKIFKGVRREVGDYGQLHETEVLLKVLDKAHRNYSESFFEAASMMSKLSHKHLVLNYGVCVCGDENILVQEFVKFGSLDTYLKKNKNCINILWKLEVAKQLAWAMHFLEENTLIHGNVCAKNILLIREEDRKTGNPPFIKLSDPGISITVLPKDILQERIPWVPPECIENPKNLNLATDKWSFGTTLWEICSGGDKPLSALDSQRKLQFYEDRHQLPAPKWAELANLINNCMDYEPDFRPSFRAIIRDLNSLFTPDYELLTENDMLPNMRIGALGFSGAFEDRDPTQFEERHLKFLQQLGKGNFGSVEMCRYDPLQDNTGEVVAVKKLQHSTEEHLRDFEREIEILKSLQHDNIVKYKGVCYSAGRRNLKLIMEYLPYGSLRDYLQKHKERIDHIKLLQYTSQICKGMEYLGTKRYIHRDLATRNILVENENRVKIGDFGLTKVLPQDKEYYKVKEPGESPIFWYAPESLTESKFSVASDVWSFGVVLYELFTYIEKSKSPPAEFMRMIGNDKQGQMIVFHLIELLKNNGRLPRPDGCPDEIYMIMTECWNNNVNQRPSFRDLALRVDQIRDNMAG
experiment_summary: phosphorylation enrichment, bacterial display (enrichment ratio); higher = better substrate or ligand; peptides without Tyr show the background
readout_kind: phosphorylation enrichment

> print(dat)
                   biopolymer.sequence                readout.kind  test.value
 1              DVCKNYAEAKD [ALB_Y343]  phosphorylation enrichment        1.14
 2    CTTIHYNFMCH [TP53_Y234_N239H_YF]  phosphorylation enrichment        0.75
 3    ATFRGYDSDNP [MMUT_Y146_H143Y_YF]  phosphorylation enrichment       0.811
 4             RDLRTYIMPAH [PNMT_Y256]  phosphorylation enrichment       0.893
 5      TKAEKYVNKPK [PLCG1_Y991_A995P]  phosphorylation enrichment       0.596
 6   ANKNVYEVEPT [MEGF10_Y1075_R1072K]  phosphorylation enrichment       0.848
 7       EWQQIYTFDSG [JUP_Y20_T19I_YF]  phosphorylation enrichment        1.21
 8       YSNKLHYQLEQ [PDPR_Y109_Y109H]  phosphorylation enrichment       0.757
 9        SEPSGYQDNIA [DES_Y363_A360P]  phosphorylation enrichment       0.953
10              GTYEDYVEGLR [MYL6_Y89]  phosphorylation enrichment       0.885
11       WRGMPYGGRGD [TGM1_Y312_R307W]  phosphorylation enrichment       0.482
12  GGQVFHNSEFG [FLT4_Y1333_Y1333H_YF]  phosphorylation enrichment       0.534
13       HPYNSYTYPRL [PAK5_Y316_S312P]  phosphorylation enrichment       0.429
14          RAKLFYQEVPA [METTL11B_Y76]  phosphorylation enrichment       0.547
15    QRCFVYFFSFL [PTEN_Y176_R173C_YF]  phosphorylation enrichment        2.19
16        PVQAVYQKVVA [HBB_Y131_A130V]  phosphorylation enrichment       0.289
17      APRKVYDTQDD [ZFPL1_Y215_R218Q]  phosphorylation enrichment       0.808
18            EASEQYLTKAS [NRCAM_Y739]  phosphorylation enrichment       0.793
19           LRVKMYNFLRS [ADGRG7_Y760]  phosphorylation enrichment        1.47
20      EFGEVYKGTLK [EPHA2_Y628_M631T]  phosphorylation enrichment       0.425
21             SETDDYAEIID [PTK2_Y397]  phosphorylation enrichment        1.57
22        WNNLDYMDSRR [GAA_Y407_D404N]  phosphorylation enrichment       0.749
23       KGEDFYCVTYH [FHL1_Y149_C153Y]  phosphorylation enrichment        1.25
24            AEMKRYAESSS [RAI14_Y869]  phosphorylation enrichment       0.582
25           NGVSYYINLCQ [IGF2R_Y2025]  phosphorylation enrichment        1.38
26       EWKNNCPRLRE [OPA1_Y582_Y582C]  phosphorylation enrichment        0.81
27            SCRENYSDSEE [LEMD3_Y258]  phosphorylation enrichment           1
28        FRQLQYCPSVE [CTNND2_Y508_YF]  phosphorylation enrichment       0.901
29          RLLVVYPWTRR [HBB_Y36_Q40R]  phosphorylation enrichment       0.469
30     EYRFIYMAVQH [PTPN11_Y515_Q510E]  phosphorylation enrichment        1.26
31   GHLFANDWISI [BEST1_Y227_Y227N_YF]  phosphorylation enrichment       0.782
32       SVVVPDEPPEV [TP53_Y220_Y220D]  phosphorylation enrichment        1.19
33     LTRDIYKNDYY [ROS1_Y2110_A2106T]  phosphorylation enrichment        2.28
34                         KINKMYSDHAM  phosphorylation enrichment         0.5
35            VIECSYTSADG [DHCR7_Y382]  phosphorylation enrichment       0.934
36    RGVAHYILQTF [SLC39A4_Y359_T357A]  phosphorylation enrichment        1.33
37      KNAEKYAEEDW [HSPA9_Y568_R573W]  phosphorylation enrichment        1.21
38             VCHELYNTIRD [PBRM1_Y54]  phosphorylation enrichment       0.761
39             EEESCYILHSS [PATJ_Y783]  phosphorylation enrichment        1.31
40            STLEVYSCHPP [IL21R_Y317]  phosphorylation enrichment        1.38
41     EPTPSYEVGQR [TSC2_Y1788_G1787S]  phosphorylation enrichment       0.686
42  IFETDYFQKGG [INSR_Y1189_R1191Q_YF]  phosphorylation enrichment       0.981
43        FLAVGYHKPRI [IDS_Y225_H229R]  phosphorylation enrichment       0.502
44       GMAHNYRNRSQ [AASS_Y188_S191R]  phosphorylation enrichment       0.488
45    EAEPYYCSLRD [NPHS1_Y1139_R1140C]  phosphorylation enrichment        1.33
46           REHTVYGEPRK [MAGEA4_Y240]  phosphorylation enrichment       0.674
47           DSASAYADEVK [ETNPPL_Y189]  phosphorylation enrichment        1.15
48       AGARMYGVLPW [PLP1_Y207_D203G]  phosphorylation enrichment        0.55
49       NAPNSYGRRPT [CDKN2A_Y44_I49T]  phosphorylation enrichment        1.11
50      TDISLYPSGGT [TENM4_Y399_V396I]  phosphorylation enrichment       0.657
51        ITSLLYHVVGW [GBA_Y412_N409S]  phosphorylation enrichment        2.57
52                         TENAGYFFQVS  phosphorylation enrichment        1.21
53          IVEFAYNDKAI [PUM3_Y259_YF]  phosphorylation enrichment       0.668
54            LAVPLYKNGVK [CPS1_Y1069]  phosphorylation enrichment       0.933
55           DDERGYRRVRS [GIGYF2_Y268]  phosphorylation enrichment       0.461
56      DVQNEYDSNHC [ZFYVE16_Y36_A35E]  phosphorylation enrichment       0.701
57           EHTTLYSNNST [KANSL1_Y223]  phosphorylation enrichment       0.575
58       IEELTYVIKQD [STX5_Y137_I138V]  phosphorylation enrichment        1.18
